Assay: chemical genetic growth profiling, strain panel (AID 1159580);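 also: tested at 20 µM; growth read once vehicle control cultures reached saturation at 30 °C; 1 = growth at the plate median or of vehicle wells; lower values mean less growth of the strain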
Details: S. cerevisiae deletion strains, growth OD, locus YGR040W, strain KSS1, stronger effect = lower value
Hit rate of the full screen: of about 5,500 compounds, about 2,000 (36%) were called active. About 18% were inconclusive and are not listed. Some of the results follow.
quantity: normalized growth
// print number alone

Examples with their reported normalized growth follow.
{"structure-notation": "Cc1onc(-c2c(Cl)cccc2Cl)c1C(=O)NC(C)(C)CC(C)(C)C", "observed": 0.956}
{"structure-notation": "Cc1c(C(=O)N(Cc2ccccc2)Cc2cccs2)cnn1-c1ccc(Cl)cc1", "observed": 0.938}
{"structure-notation": "Cc1c(C(=S)Nc2ccccc2)sc2ccccc12", "observed": 0.867}
{"structure-notation": "O=C(Nc1ccc(OC(F)(F)F)cc1)OC1CN(C(c2ccccc2)c2ccccc2)C1", "observed": 0.987}
{"structure-notation": "FC(F)(F)c1cccc(-n2c(CSCc3cccc4ccccc34)n[nH]c2=S)c1", "observed": 0.991}
{"structure-notation": "CC1(C)OC(=O)C(=Cc2cccn2-c2ccc(OC(F)(F)F)cc2)C(=O)O1", "observed": 0.91}

**Q:** State its normalized growth for this compound: `CC1(C)OC(=O)C(=Cc2cccn2-c2ccc(C(F)(F)F)cc2)C(=O)O1`
**A:** 0.921

**Q:** Check the records and state normalized growth for `O=C(NNc1ccc(I)cc1)c1cc(Cl)cc(Cl)c1`
**A:** 0.809

**Q:** Write down normalized growth measured for item `Cc1onc(-c2c(Cl)cccc2Cl)c1C(=O)NNc1c(Cl)cccc1Cl`
**A:** 0.941

**Q:** Return normalized growth (reported value) for this compound: `Cc1onc(-c2c(F)cccc2Cl)c1C(=O)ON=C1C2CC3CC(C2)CC1C3`
**A:** 0.953

* * *

Test: chemical genetic growth profiling, strain panel (AID 1159580)
Conditions: S. cerevisiae deletion strains, growth OD, locus YMR125W, strain sto1
Hit rate of the full screen: of about 5,500 compounds, about 2,000 (36%) were called active. Another 18% or so got no clear call; they are omitted. Cut-off read from the data, not from the text of the source: active = normalized growth mostly below about 0.91 (no sharp cut-off); inconclusive = no clear call, values can overlap the other calls; inactive = mostly above about 0.92. The list shows a part of the results.
Tick one outcome: active, inactive

{"compound": "CC(C)C(C)/C=C/C(C)[C@H]1CCC2C3=CCC4CC(=O)CC[C@]4(C)C3CC[C@@]21C (stereo not given in full)", "classification": "inactive"}

**Q:** // return assay outcome for `Cc1cc(-c2ccccc2)nnc1NCCN1CCOCC1`
**A:** inactive

**Q:** So what was the verdict on CC(=O)OC1CCC2(C)C(=CC=C3C2CCC2(C)C3CCC2C(C)/C=C/C(C)C(C)C)C1(C)C (stereo not given) in this test?
**A:** inactive

**Q:** // return assay outcome for `O=c1cc[nH]c(=S)[nH]1`
**A:** inactive

**Q:** Kindly provide the recorded test outcome for the following compound: CC(C(=O)O)c1ccc(C(=O)c2cccs2)cc1 (stereo not given)
**A:** inactive

**Q:** Give the logged outcome of this assay for the following compound: CC(C)NCC(O)c1cc(O)cc(O)c1 (stereo not given)
**A:** inactive

**Q:** Query: recorded result category for C[N+]1(C)C2CC(OC(=O)[C@@H](CO)c3ccccc3)CC1C1OC12 (stereo not given in full) in this test
**A:** inactive

**Q:** Test call for this compound, please: `Oc1ccc(Cl)cc1`
**A:** inactive

**Q:** For `CCOC(=O)c1ccc(O)cc1` , what call appears in the results of this test?
**A:** inactive

**Q:** Recorded test call requested for CC(C)NCC(O)COc1cccc2ccccc12 (stereo not given)
**A:** inactive

**Q:** # lookup: test call for `Clc1cccc(Cl)c1NC1=NCCN1`
**A:** inactive

* * *

Each entry below lists one item and its recorded normalized growth value.
Assay: chemical genetic growth profiling, strain panel (AID 1159580);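 also: tested at 20 µM; growth read once vehicle control cultures reached saturation at 30 °C; 1 = growth at the plate median or of vehicle wells; lower values mean less growth of the strain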
Conditions: S. cerevisiae deletion strains, growth OD, locus YJL134W, strain LCB3, stronger effect = lower value
The whole screen tested about 5,500 compounds, of which about 2,000 (36%) were called active. Inconclusive results (about 18%) are left out. The list shows a part of the results.
I'd appreciate a reply containing only the number, no unit.

// solved cases for normalized growth follow
{"compound": "O=C1OC(c2ccc(O)cc2)(c2ccc(O)cc2)c2ccccc21", "quantity": "normalized growth", "observed": 0.988}
{"compound": "CO[C@@]1(NC(=O)CSCC#N)C(=O)N2C(C(=O)O)=C(CSc3nnnn3C)CSC21 (stereo partly drawn)", "quantity": "normalized growth", "observed": 1}
{"compound": "NC(CO)C(=O)NNCc1ccc(O)c(O)c1O (stereo not drawn)", "quantity": "normalized growth", "observed": 1.01}
{"compound": "CCCCN(CCCC)CCCOC(=O)c1ccc(N)cc1", "quantity": "normalized growth", "observed": 0.993}
{"compound": "CC(=O)Oc1c(C)cccc1C(=O)O", "quantity": "normalized growth", "observed": 1.01}

Here is the next item to consider.
**Q:** Give recorded normalized growth. C=C1C(C)C2C(Cc3ccccc3)NC(=O)C23OC(=O)/C=C/C(=O)CCCC(C)C/C=C/C3C1O (stereo not drawn)
**A:** 1

* * *

Experiment: chemical genetic growth profiling, strain panel (AID 1159580);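 also: tested at 20 µM; growth read once vehicle control cultures reached saturation at 30 °C; 1 = growth at the plate median or of vehicle wells; lower values mean less growth of the strain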
Settings: S. cerevisiae deletion strains, growth OD, locus YER111C, strain swi4, stronger effect = lower value
Among all 5,500 compounds or so, about 2,000 (36%) were called active. About 18% were inconclusive and are not listed. The list shows a part of the results.
quantity: normalized growth
Number, no unit, nothing else.

Observe how each entry below is paired with its result.
{"compound": "O=C(O)CN1C(=O)c2cccc3cccc(c23)C1=O", "observed": 0.975}
{"compound": "CC(=O)Oc1c(C)cccc1C(=O)O", "observed": 1.02}
{"compound": "Nc1nc2ncc(=O)[nH]c2c(=O)[nH]1", "observed": 0.957}
{"compound": "COc1cc2c(cc1OC)C1Cc3ccc(OC)c(OC)c3CN1CC2 (centres undefined)", "observed": 0.973}
{"compound": "NC(=O)c1cccc(N)c1", "observed": 0.966}
{"compound": "CC[C@H](C)C(=O)O[C@H]1C[C@@H](C)C=C2C=C[C@H](C)[C@H](CC[C@@H]3C[C@@H](O)CC(=O)O3)[C@H]21", "observed": 1.01}
{"compound": "O=S1OCC2C(CO1)C1(Cl)C(Cl)=C(Cl)C2(Cl)C1(Cl)Cl (centres undefined)", "observed": 0.997}
{"compound": "O=C1OC2(c3ccc(O)cc3Oc3cc(O)ccc32)c2ccccc21", "observed": 1.01}
{"compound": "COC(=O)C[C@H]1C(C)(C)C(=O)[C@@H]2CC3=C(CC[C@]4(C)C3=CC(=O)O[C@H]4c3ccoc3)[C@@]1(C)C2=O", "observed": 0.953}
{"compound": "COc1ccc2c(c1OC)C(=O)OC2[C@H]1c2c(cc3c(c2OC)OCO3)CCN1C (some centres undefined)", "observed": 1.01}

**Q:** Report normalized growth for CC1C[C@H]2CC(=O)[C@H]3CCCN4CCC[C@H]2[C@]34C1 (some centres undefined)
**A:** 1

**Q:** Using known records, supply normalized growth for CC(C)(Oc1ccc(C2CC2(Cl)Cl)cc1)C(=O)O (centres undefined)
**A:** 0.998

**Q:** Give recorded normalized growth. `Cc1cccc(Nc2ccccc2C(=O)O)c1C`
**A:** 0.907

**Q:** Find the measured normalized growth of C=C1CCC(C2CC(=O)OC2=O)C(=O)CCC2C1CC2(C)C (centres undefined) and report it.
**A:** 1.01

* * *

Some compounds, each annotated with its measured normalized growth.
Assay: chemical genetic growth profiling, strain panel (AID 1159580);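 also: tested at 20 µM; growth read once vehicle control cultures reached saturation at 30 °C; 1 = growth at the plate median or of vehicle wells; lower values mean less growth of the strain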
Conditions: S. cerevisiae deletion strains, growth OD, locus YLR370C, strain arc18, stronger effect = lower value
About 2,000 (36%) of roughly 5,500 compounds were called active. Another 18% or so got no clear call; they are omitted. The list shows a part of the results.
Just the number.

The cases that follow already have their normalized growth on record.
{"compound": "CC(=O)OC1CCC2(C)C(=CC=C3C2CCC2(C)C3CCC2C(C)/C=C/C(C)C(C)C)C1(C)C (stereo not given)", "normalized growth": 1.06}
{"compound": "CC(C)C(C)/C=C/C(C)C1CCC2C3=CC=C4CC(O)CCC4(C)C3CCC21C (stereo not given)", "normalized growth": 0.989}
{"compound": "NC(CO)C(=O)NNCc1ccc(O)c(O)c1O (stereo not given)", "normalized growth": 0.995}

**Q:** Hello, please tell me recorded normalized growth for this one: CCC(C)C(=O)O[C@H]1C[C@H](O)C=C2C=C[C@H](C)[C@H](CC[C@@H](O)C[C@@H](O)CC(=O)O)C21 (stereo not given in full)
**A:** 1.02

**Q:** Return normalized growth (reported value) for this compound: `CCC(C)(C)C(=O)O[C@H]1C[C@@H](C)C=C2C=C[C@H](C)[C@H](CC[C@@H]3C[C@@H](O)CC(=O)O3)[C@H]21`
**A:** 1.01
